tested on: KM20L2 colon; assay: NCI tumour cell line growth inhibition, 48 h
MEASURED_METRIC: TGI

Example cases with answers are listed next.
CCCCc1c2c(nc3c1CCc1cc4c(nc1-3)-c1nc3c(c(CCCC)c1CC4)CCC/C3=C\c1ccccc1)/C(=C/c1ccccc1)CCC2    > 100 µM
C/C(=N\NC(N)=O)C(CN1CCCCC1)C(c1ccccc1)c1c(O)c2ccccc2oc1=O (stereo unspecified)    > 100 µM
CC1(O)C=CC2CCC1C2O (stereo unspecified)    > 100 µM
CN(C)C[C@H]1CC[C@@H](CN(C)C)C1=O    25.5 µM
O=C(CC(=O)N1N=C(c2ccccc2)C(N=Nc2ccc(C(=O)O)cc2)C1=O)Nc1ccc(F)cc1 (stereo unspecified)    > 100 µM

So what's the measured TGI for this one? Cn1c2c([N+](=O)[O-])[se]nc2c(=O)n1-c1ccc([N+](=O)[O-])cc1
18.3 µM

---

test system: SR leukemia; assay: NCI tumour cell line growth inhibition, 48 h
MEASURED_METRIC: TGI

Example cases with answers are listed next.
Cc1ccc2nc3c(C)c(Cl)c(=O)cc-3sc2c1    > 31.6 µM
Cc1c[nH]c2c1C13CC1CN(C(=O)c1cc4cc(NC(=O)c5cc6ccccc6o5)ccc4[nH]1)C3=CC2=O (stereo not given)    < 0.001 µM
CC(=O)/C=C/C=C(\C)CC/C=C(\C)CC(C)C    39.1 µM

So what's the measured TGI for this one? CCN(CC)CCN1C(=O)c2c(c(C)c3c(oc4cc(O)ccc43)c2C)C1=O
> 100 µM

So what's the measured TGI for this one? Cc1cc2ccccc2c[n+]1CC(O)C[n+]1cc2ccccc2cc1C
> 100 µM

So what's the measured TGI for this one? O=c1[nH]c(=O)n(C2OC(COP(=O)(O)OP(=O)(O)O)C(O)C2O)cc1F (stereo not given)
> 50 µM

So what's the measured TGI for this one? CCc1nnc(-n2c(C)nc3cc(Cl)ccc3c2=O)s1
> 100 µM

---

test system: SNB-78 CNS; experiment: NCI tumour cell line growth inhibition, 48 h
MEASURED_METRIC: TGI

Example cases with answers are listed next.
CN(C)C[C@H]1CC[C@@H](CN(C)C)C1=O    23.3 µM
O=C(CC(=O)N1N=C(c2ccccc2)C(N=Nc2ccc(C(=O)O)cc2)C1=O)Nc1ccc(F)cc1 (stereo not given)    > 100 µM
Cc1nc(C)c(C(=O)Nc2cccc3c2C(=O)NC3=O)cc1C(=O)Nc1cccc2c1C(=O)NC2=O    > 100 µM
CCCCc1c2c(nc3c1CCc1cc4c(nc1-3)-c1nc3c(c(CCCC)c1CC4)CCC/C3=C\c1ccccc1)/C(=C/c1ccccc1)CCC2    > 100 µM
NC(Cc1cc(I)c(O)c(I)c1)C(=O)O (stereo not given)    > 500 µM
CCOc1ccc2[nH]c3c(C)c4cc[n+](C)cc4c(C)c3c2c1    > 100 µM
CC1=NNC(=NCCN(C)C)C/C1=C/c1ccccc1Cl    > 100 µM
COC(=O)/C=C/C(=O)C1C(C(=O)OC)C2(C(=O)OC)CCC1(C(=O)OC)N2 (stereo not given)    > 100 µM
CC#C[C@@]1(O)CCCC[C@@H]1O    > 100 µM

We now examine a further compound.
So what's the measured TGI for this one? OCC(O)C(O)c1nn(-c2ccccc2)c2nc3cc(Cl)c(Cl)cc3nc12 (stereo not given)
> 100 µM

---

Overview of recorded log10(TGI) for various molecules
tested on: COLO 205 colon; assay: NCI tumour cell line growth inhibition, 48 h
Friendly reminder: values = log10 of TGI, unit µM.

Example cases with answers are listed next.
O=C(CC(O)(C(F)(F)F)C(F)(F)F)C(CCCl)C(O)(C(F)(F)F)C(F)(F)F (configuration not stated)    1.43
CC1=CC(O)C(O)C2(C)C1CC1OC(=O)C(O)C3C(C)C(O)C4(O)OCC13C42 (configuration not stated)    1.90
N#Cc1c(Nc2ccc(F)cc2)[n+]([O-])c2ccc(Cl)cc2[n+]1[O-]    0.66
CCCCCc1cc2c(cc1O)CC[C@@H]1[C@@H]2CC[C@]2(C)[C@@H](O)CC[C@@H]12    1.47
O=C1C2c3[nH]c4ccccc4c3[C@@H]3CCCCCCCCCCC3C2C(=O)N1c1ccccc1 (some centres not stated)    1.77
COc1ccc(OC)c(-c2nc3sccn3c2/C=C2/C(=O)Nc3ccc(Cl)cc32)c1    1.60
COc1ccc(C2OC(=O)c3c2ccc2ccccc32)c(C)c1 (configuration not stated)    1.34

We now examine a further molecule.
Reported log10(TGI) for COLO 205 colon, given C/C1=C\[C@H](C)C[C@H](C)OC(=O)C[C@H](c2ccc(O)cc2)NC(=O)[C@@H](Cc2c(Br)[nH]c3ccccc23)N(C)C(=O)[C@H](C)NC(=O)[C@@H](C)C1 ?
-0.05

---

tested on: HCT-15 colon; assay: NCI tumour cell line growth inhibition, 48 h
MEASURED_METRIC: TGI

Example cases with answers are listed next.
C(=N\Nc1nnc2c(n1)[nH]c1ccccc12)/c1cccnc1    > 100 µM
O=S1(=O)NNC(=NCc2ccc(Cl)cc2)c2ccccc21    > 100 µM
CC[C@]12C=CCN3CCC4(c5cc(N=Nc6ccccc6)c(OC)cc5N(C)[C@H]4[C@@](O)(C(=O)OC)[C@@H]1OC(C)=O)[C@@H]32 (stereo not given in full)    34.4 µM

Reported TGI for HCT-15 colon, given C#CCN1C(=O)/C(=c2\sc3n(c2=O)C2C(NN=3)N(CC)C(=O)N2CC)c2ccccc21 (stereo not given) ?
> 100 µM

Reported TGI for HCT-15 colon, given OCC1OC(n2cnc3cccnc32)CC1O (stereo not given) ?
> 100 µM

Reported TGI for HCT-15 colon, given CCCCc1c2c(nc3c1CCc1cc4c(nc1-3)-c1nc3c(c(CCCC)c1CC4)CCC/C3=C\c1ccccc1)/C(=C/c1ccccc1)CCC2 ?
> 100 µM

Reported TGI for HCT-15 colon, given Nc1[nH]c(=O)ncc1F ?
> 100 µM

Reported TGI for HCT-15 colon, given CCC1C(C)c2c([nH]c3ccccc23)C2C(=O)N(c3ccccc3)C(=O)C21 (stereo not given) ?
31.2 µM

Reported TGI for HCT-15 colon, given C=CN1C(=O)OC(c2ccccc2)C1c1ccccc1 (stereo not given) ?
> 100 µM

Reported TGI for HCT-15 colon, given CC(C)C[C@H](NC(=O)[C@H](CCc1ccccc1)NC(=O)CN1CCOCC1)C(=O)N[C@@H](Cc1ccccc1)C(=O)N[C@@H](CC(C)C)C(=O)[C@@]1(C)CO1 ?
1.6 µM

---

system: A498 renal; assay: NCI tumour cell line growth inhibition, 48 h
Overview of recorded TGI for various compounds
Report the figure in µM without appending any unit label.

N#Cc1c(Nc2ccc(F)cc2)[n+]([O-])c2ccc(Cl)cc2[n+]1[O-]    8.63
CCN(CC)CCO/N=C1\CC[C@H]2[C@@H]3CC=C4C[C@@H](O)CC[C@]4(C)[C@H]3CC[C@]12C    35.9
N#Cc1c(NC(=O)c2ccccc2)sc2c1CCC(=O)C2    41.2
CS(=O)(=O)OCCN1CCC2(CC1)SSC1(CCN(CCOS(C)(=O)=O)CC1)S2    56.1
COc1ccc(C2OC(=O)c3c2ccc2ccccc32)c(C)c1 (stereo not given)    21.2
COc1ccc(OC)c(-c2nc3sccn3c2/C=C2/C(=O)Nc3ccc(Cl)cc32)c1    38.8
COc1ccc(/C=C/c2c(C(=O)/C=C/c3ccc(Cl)cc3)c(C)nc3ccccc23)cc1    3.39

We now examine a further compound.
So what's the measured TGI for this one? C=C(C=O)C1CC(=O)C(C(=O)OC)[C@@H]2O[C@@](C)(CC2=O)C[C@@H]2OC(=O)[C@]3(O[C@@H]23)[C@@H](C(=O)OC)C1 (stereo not given in full)
47

---

tested on: NCI-H522 lung; assay: NCI tumour cell line growth inhibition, 48 h; in the data active = GI50 below about 0.43 µM; inactive = the rest
// allowed return values: class 1 for active, class 0 for inactive

Past entries and their recorded results:
C#CCN1C(=O)/C(=c2\sc3n(c2=O)C2C(NN=3)N(CC)C(=O)N2CC)c2ccccc21 (configuration not stated)    class 0
CN1/C(=C\C(I)C(I)C2=[N+](C)c3ccccc3C2(C)C)C(C)(C)c2ccccc21 (configuration not stated)    class 1
Cc1c[nH]c2c1C13CC1CN(C(=O)c1cc4cc(NC(=O)c5cc6ccccc6o5)ccc4[nH]1)C3=CC2=O (configuration not stated)    class 0

Hi, sorry to bother you, what did the test record for O=C1c2[nH]cc(CN3CCNCC3)c2C(=O)c2c1c(O)c1ccccc1c2O ?
class 0

Hi, sorry to bother you, what did the test record for Nc1ccc(-c2nc3ccc4[nH]ncc4c3c3c2CCCC3)cc1F ?
class 0

Hi, sorry to bother you, what did the test record for COC(=O)C[CH](C(=O)OC)[Ge]([CH3])([CH3])[S]c1ccccc1 (configuration not stated) ?
class 0

Hi, sorry to bother you, what did the test record for COc1ccc(OC)c(-c2nc3sccn3c2/C=C2/C(=O)Nc3ccc(Cl)cc32)c1 ?
class 0

Hi, sorry to bother you, what did the test record for CC1(C)CCC[C@]23C(=O)O[C@](O)(C(=O)C4=C[C@@](C)(/C=C/CCCc5ccc6ccc7cccc8ccc5c6c78)CC[C@@]42O)[C@@H]13 ?
class 1

Hi, sorry to bother you, what did the test record for S=c1nc(-c2ccccc2)oc(=NC2CCCCC2)n1C1CCCCC1 ?
class 0

Hi, sorry to bother you, what did the test record for C/C1=C\[C@H](C)C[C@H](C)OC(=O)C[C@H](c2ccc(O)cc2)NC(=O)[C@@H](Cc2c(Br)[nH]c3ccccc23)N(C)C(=O)[C@H](C)NC(=O)[C@@H](C)C1 ?
class 1

Hi, sorry to bother you, what did the test record for N#Cc1c(NC(=O)c2ccccc2)sc2c1CCC(=O)C2 ?
class 1

Hi, sorry to bother you, what did the test record for COc1ccc(C(=O)c2cc(OC)c(OC)c(OC)c2)cc1OC(C)=O ?
class 1
